Listing: Kd of selected binders
Biological target: T1, huIL1RAP ECD recombinant protein (human, UniProt Q9NPH3 21-367)
T1 construct: also called recombinant human IL1RAP-ECD; recombinant human IL1RAP; not shown: C-terminal histidine tag for purification
Experiment: Octet BLI, antibody on Protein A biosensor, recombinant huIL1RAP ECD
Your answer should be a plain number; it is taken to be in nM.

Worked cases, answers included:
5D12_C108Y (antibody, V domains shown, Cys108Tyr (VH) variant of 5D12_18A4) VH: QVQLQESGPGLVKPLGTLSLTCAVSGGSISNSNWWSWVRQPPGKGLEWIGEIYHSGSTNYNPSLKSRVTIALDWSKNQFSLQLRSVTAADTAVYYCARYGSGPFGGDYWGQGTLVTVSS VL: DIQLTQSPSFLSASVGDRVTISCRASQGISSYLAWYQQKPGKAPKLLIYAASTLQGGVPSRFSGSGSGTTFTLTISSLQPEDFATYYCQQLNTYPFTFGPGTKLEIK ... 13
32C12-N26S (antibody, V domains shown, Asn26Ser (VL CDR1) variant of 32C12_21A4) VH: QVQLVESGGGVVQPGRSLRLSCAASGFTFRNYGIHWVRQAPGKGLEWVAVIWYDGSNKFYADSVKGRFTISRDNSKNTLYLQMNSLRVEDTAVYYCAREEGIAVAPFDYWGQGTLVTVSS VL: DIQMTQSPSSLSASVGDRVAITCRASQSIASYLNWYQQKPGKAPKLLIYGASSLQNGVPSRFSGSGSRTDFTLTISSLQPEDFATYYCQQSYSTEITFGQGTRLEIK ... 19

Continue with the binder presented below.
Query: Item under review: 34C11_21B2 (antibody, V domains shown, Recombinant human antibody) VH: EVQVVESGGGLVQPGGSLRLSCAASGFTFRSYWMSWVRQAPGKGLEWVANIKQDGSERHYVDSVKGRFTISRDNAKTSLYLQMSSLRAEDTAVYYCAREGYFGSGYFDYWGQGTLVTVSS VL: DIQMTQSPSTLSASVGDRVIITCRASQSISRGLAWYQQKPGKAPKLLIYKASNLESGVPSRFSGSGSGTEFTLTISSLQPDDFAAYYCQQYSYYSHTFGQGTKLEIK . Reported Kd?
Response: 0.2

Hey, just so you know, these numbers are from patent US20260008856A1.
